Attribute: pIC50
# tgt: Aldo-keto reductase family 1 member B1 (Homo sapiens)
# measurementDescription: Inhibition of human recombinant AKR1B1 assessed as D,L-glyceraldehyde reduction incubated in sodium phosphate buffer at pH 6.2 in presence of NADPH
# conditionParameters: read-out: IC50
Entry type: numeric. Quantity: pIC50, the -log10 of concentration in molar units.

Reference set (5 entries):
O=C1NC(=O)C(c2ccccc2)(c2ccc(O)cc2)N1 (configuration not stated) :: 4.39
Cn1cnc2c1c(=O)n(CCCCC1(C)NC(=O)NC1=O)c(=O)n2C (configuration not stated) :: 4.18
COc1ccc(C2(C)NC(=O)NC2=O)c(O)c1 (configuration not stated) :: 3.53
CC(C)=C1C[C@@H]2[C@@H](CCC3(C)NC(=O)NC3=O)[C@]2(C)CC1=O (some centres not stated) :: 3.54
CCCCCCCCC[C@H](O)CC(=O)CCc1ccc(O)c(OC)c1 :: 3.90

Form field pIC50, entry O=C1NC(=O)C2(CCCc3ccccc32)N1 (configuration not stated) : 4.10

Form field pIC50, entry CC1(CCc2ccccc2)NC(=O)NC1=O (configuration not stated) : 3.80

* * *

# tgt: UniProtKB P15121
# measurementDescription: Aggregation-based inhibition of human recombinant AKR1B1 assessed as D,L-glyceraldehyde reduction incubated in sodium phosphate buffer at pH 6.2 in presence of NADPH and 0.05% Triton X-100 by detergent-addition assay
With a cut-off of 100 µM, any IC50 strictly below it is called yes (1); any IC50 meeting it or above is called no (0).

O=C1NC(=O)C(c2ccccc2)(c2ccc(O)cc2)N1 (stereo unspecified) :: yes (1)

Qu. Could you please tell me whether IC50 recorded for COc1ccc(C2(C)NC(=O)NC2=O)c(O)c1 (stereo unspecified) is less than 100 µM?
Ans. no (0)

Qu. Could you please tell me whether IC50 recorded for Cn1cnc2c1c(=O)n(CCCCC1(C)NC(=O)NC1=O)c(=O)n2C (stereo unspecified) is less than 100 µM?
Ans. yes (1)

Qu. Could you please tell me whether IC50 recorded for CC(C)=C1C[C@@H]2[C@@H](CCC3(C)NC(=O)NC3=O)[C@]2(C)CC1=O (stereo partly specified) is less than 100 µM?
Ans. no (0)

Qu. Could you please tell me whether IC50 recorded for O=C1NC(=O)C2(CCCc3ccccc32)N1 (stereo unspecified) is less than 100 µM?
Ans. no (0)

Qu. Could you please tell me whether IC50 recorded for CC1(CCc2ccccc2)NC(=O)NC1=O (stereo unspecified) is less than 100 µM?
Ans. no (0)

* * *

# tgt: Aldo-keto reductase family 1 member B1 (Homo sapiens)
# measurementDescription: Inhibition of human recombinant AKR1B1 assessed as D,L-glyceraldehyde reduction at 100 uM incubated in sodium phosphate buffer at pH 6.2 in presence of NADPH relative to control
Okay, here is how we bin by inhibition: low bin (below 20%), mid bin (20% to below 40%), high bin (40% or more)

Take a look at these entries with their results.
O=C1NC(=O)C2(CCCc3ccccc32)N1 (stereo not drawn) :: high bin
CCCC1NC(=O)NC1=O (stereo not drawn) :: low bin
COc1ccc(C(C)=O)c(O)c1 :: low bin
CCCCCCCCC[C@H](O)CC(=O)CCc1ccc(O)c(OC)c1 :: high bin
COc1ccc(C2(C)NC(=O)NC2=O)c(O)c1 (stereo not drawn) :: mid bin

Qu. // return the class label for CC(C)=C1C[C@@H]2[C@@H](CCC3(C)NC(=O)NC3=O)[C@]2(C)CC1=O (stereo partly drawn)
Ans. mid bin

Qu. // return the class label for O=C1NC(=O)C(c2ccccc2)N1 (stereo not drawn)
Ans. mid bin

Qu. // return the class label for "CCCCC[C@H](O)CC(=O)CCc1ccc(O)c(OC)c1"
Ans. low bin

Qu. // return the class label for COc1ccc2c(c1)OC(=O)NC2(C)C(N)=O (stereo not drawn)
Ans. low bin

Qu. // return the class label for "CC(=O)CC[C@@H]1[C@H]2CC(=C(C)C)C(=O)C[C@@]12C"
Ans. low bin

Qu. // return the class label for Cn1cnc2c1c(=O)n(CCCCC1(C)NC(=O)NC1=O)c(=O)n2C (stereo not drawn)
Ans. high bin

Qu. // return the class label for O=C1NC(=O)C(c2ccccc2)(c2ccc(O)cc2)N1 (stereo not drawn)
Ans. high bin
